assayed target: Protein translocase subunit SecA (Escherichia coli (strain K12)) (UniProt P10408)
Sequence (P10408 whole entry): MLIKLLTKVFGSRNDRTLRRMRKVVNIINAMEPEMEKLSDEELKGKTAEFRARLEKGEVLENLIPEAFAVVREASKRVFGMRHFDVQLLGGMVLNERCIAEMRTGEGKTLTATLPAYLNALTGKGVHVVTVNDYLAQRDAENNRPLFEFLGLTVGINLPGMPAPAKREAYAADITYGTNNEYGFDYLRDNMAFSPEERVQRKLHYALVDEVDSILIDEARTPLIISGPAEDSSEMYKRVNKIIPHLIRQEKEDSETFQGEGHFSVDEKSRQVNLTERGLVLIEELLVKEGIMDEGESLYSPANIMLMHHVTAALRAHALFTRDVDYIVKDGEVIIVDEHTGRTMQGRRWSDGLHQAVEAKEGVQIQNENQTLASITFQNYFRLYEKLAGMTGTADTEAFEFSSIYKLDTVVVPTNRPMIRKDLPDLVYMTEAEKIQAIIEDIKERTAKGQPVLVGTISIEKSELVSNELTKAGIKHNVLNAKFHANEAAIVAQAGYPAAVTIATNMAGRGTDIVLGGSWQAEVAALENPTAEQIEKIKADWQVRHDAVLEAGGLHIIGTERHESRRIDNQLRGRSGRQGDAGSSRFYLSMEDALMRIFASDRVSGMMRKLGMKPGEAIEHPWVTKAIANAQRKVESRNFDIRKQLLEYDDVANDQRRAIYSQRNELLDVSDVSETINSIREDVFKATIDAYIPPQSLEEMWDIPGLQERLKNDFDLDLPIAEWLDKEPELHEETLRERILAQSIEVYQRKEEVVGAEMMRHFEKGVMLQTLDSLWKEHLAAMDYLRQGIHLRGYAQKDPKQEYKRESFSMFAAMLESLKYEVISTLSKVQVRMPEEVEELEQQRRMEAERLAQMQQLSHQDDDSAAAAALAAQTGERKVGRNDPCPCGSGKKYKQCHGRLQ
experiment notes: Assay to Identify E. coli SecA ATPase Inhibitors
Assay type: functional
Parameters: scale not given: direction of the effect not stated beside the values
measurement conditions: 30 µM
Results with a measured potency or affinity are listed apart.

| compound | unit text | Percent Effect |
| --- | --- | --- |
| Cc1noc(C)c1CN1C[C@@H]2COC[C@H](C(=O)N3CCCCO3)[C@@H]2C1 | % | -5.77 |
| CC(C)n1cc(CN2CCCN(C(=O)c3nccnc3N)CC2)cn1 | % | -3.12 |
| COc1ccc(NC(=O)C2CCOC2)c(N2CCN(C(C)=O)CC2)n1 (stereo not given) | % | -2.36 |
| Cc1cnn(C2CCCN(C(=O)c3ccnc(N(C)C)c3)C2)c1 (stereo not given) | % | -0.378 |
| COCCN1CCCC(c2nc3c([nH]2)CC(C)(C)CNC3=O)C1 (stereo not given) | % | 0.299 |
| COc1ccc2nnc(CCCC(=O)NCc3cccn3C)n2n1 | % | -2.1 |
| CN1CCN(CCCNC(=O)c2cc(Cl)c3c(c2)OCO3)CC1 | % | 0.405 |
| Cc1ccc(-n2nnc(CC(=O)N3CCSCC3)c2C)cc1 | % | -3.7 |
| CC1CCN(S(=O)(=O)NCc2ccccc2Cn2cncn2)CC1 | % | -3.83 |
| Cc1noc(C)c1-c1cccc(CC2CCN(C(=O)c3cc[nH]n3)C2)n1 (stereo not given) | % | -2.86 |

---

assayed target: Protein translocase subunit SecA (Escherichia coli (strain K12)) (UniProt P10408)
experiment notes: Assay to Identify E. coli SecA ATPase Inhibitors
Assay type: functional
Set-up: scale not given: direction of the effect not stated beside the values
measurement conditions: 30 µM
Measured potencies and affinities stand elsewhere.
Consider the following molecules and their measured Percent Effect readings.

| molecule | Percent Effect |
| --- | --- |
| CNc1nc(CNC(=O)Nc2cccc(F)c2C)cs1 | -0.623% |
| CC(C)c1nc2n(n1)CC(NCc1ccncc1)CC2 (centres undefined) | -3.2% |
| CC(C)c1nc(C2CCCN2C(=O)c2ccc(N(C)C)nn2)no1 (centres undefined) | -0.476% |
| Cc1n[nH]c(C)c1C1COCCN1C(=O)Cc1cccc(F)c1 (centres undefined) | 1.02% |

---

assayed target: Proteasome subunit beta (Trypanosoma cruzi) (UniProt O96673)
Sequence (O96673 as listed by the source): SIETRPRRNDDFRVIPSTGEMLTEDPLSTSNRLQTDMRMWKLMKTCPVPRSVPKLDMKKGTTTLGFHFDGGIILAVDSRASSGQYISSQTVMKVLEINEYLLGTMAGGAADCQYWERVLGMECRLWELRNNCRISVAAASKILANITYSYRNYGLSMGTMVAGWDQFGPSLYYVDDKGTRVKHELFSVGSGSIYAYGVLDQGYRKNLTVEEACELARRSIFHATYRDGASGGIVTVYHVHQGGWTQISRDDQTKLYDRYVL
experiment notes: Trypanosoma cruzi proteasome chymotrypsin-like activity (TcProtChymo) assay. Further: in the data most compounds retested in dose-response had high values.
Type: functional
Design: scale not given: direction of the effect not stated beside the values
measurement conditions: 9.37 µM
assay metric: Percent Effect (%)

| compound | assay metric | unit text | recorded result |
| --- | --- | --- | --- |
| CC(C)c1noc(CCCC(=O)N2CCN(Cc3ccncc3)CC2)n1 | Percent Effect | % | 12.2 |
| CCCC1CCCN(Cc2csc(-c3cnn(C)c3)n2)CC1 (centres undefined) | Percent Effect | % | 20.4 |
| Cc1cnn(C2CN(CC(=O)Nc3cccnc3)C2)c1 | Percent Effect | % | -0.254 |
| Cc1c(C2CCCN(C(=O)Cc3ccccn3)C2)n2c(nc1=O)CCC2 (centres undefined) | Percent Effect | % | 15.3 |

---

Test system: Trypanosoma cruzi
experiment notes: Trypanosoma cruzi phosphomannomutase and mannose-1-phosphate guanylyltransferase assay
Format: functional
Design: scale not given: direction of the effect not stated beside the values
measurement conditions: 10 µM
Consider the following compounds and their measured Percent Effect readings.

| compound | Percent Effect (%) |
| --- | --- |
| O=C(CO)N1CCC(c2cncc(-c3cccc(Cl)c3)n2)CC1 | 8.27 |
| CCN1CC(C(=O)N2CCC(Oc3ccccc3Cl)CC2)CC1=O (configuration not stated) | -11.5 |
| CC(C)(C)SCCCC(=O)N1CCC(Nc2cccnn2)CC1 | 0.283 |
| O=C(NCCCn1cccn1)C1(c2ccc(F)cc2)CC1 | 3.72 |
| O=C(NCC(O)c1ccc(F)c(F)c1)c1cccnc1OCC(F)(F)F (configuration not stated) | 7.94 |
| COCc1ccc(CNC(=O)C2=NN(c3ccccc3)C(=O)CN2)cc1 | -9.09 |
| Cc1ccsc1CNC(=O)Cc1c(C)nc2c(c1C)c(=O)[nH]n2C | -2.06 |

---

assayed target: Chromo domain-containing protein 1 (Saccharomyces cerevisiae (strain ATCC 204508 / S288c) (Baker's yeast)) (UniProt P32657)
Sequence (P32657 whole entry, the tested form may be a part): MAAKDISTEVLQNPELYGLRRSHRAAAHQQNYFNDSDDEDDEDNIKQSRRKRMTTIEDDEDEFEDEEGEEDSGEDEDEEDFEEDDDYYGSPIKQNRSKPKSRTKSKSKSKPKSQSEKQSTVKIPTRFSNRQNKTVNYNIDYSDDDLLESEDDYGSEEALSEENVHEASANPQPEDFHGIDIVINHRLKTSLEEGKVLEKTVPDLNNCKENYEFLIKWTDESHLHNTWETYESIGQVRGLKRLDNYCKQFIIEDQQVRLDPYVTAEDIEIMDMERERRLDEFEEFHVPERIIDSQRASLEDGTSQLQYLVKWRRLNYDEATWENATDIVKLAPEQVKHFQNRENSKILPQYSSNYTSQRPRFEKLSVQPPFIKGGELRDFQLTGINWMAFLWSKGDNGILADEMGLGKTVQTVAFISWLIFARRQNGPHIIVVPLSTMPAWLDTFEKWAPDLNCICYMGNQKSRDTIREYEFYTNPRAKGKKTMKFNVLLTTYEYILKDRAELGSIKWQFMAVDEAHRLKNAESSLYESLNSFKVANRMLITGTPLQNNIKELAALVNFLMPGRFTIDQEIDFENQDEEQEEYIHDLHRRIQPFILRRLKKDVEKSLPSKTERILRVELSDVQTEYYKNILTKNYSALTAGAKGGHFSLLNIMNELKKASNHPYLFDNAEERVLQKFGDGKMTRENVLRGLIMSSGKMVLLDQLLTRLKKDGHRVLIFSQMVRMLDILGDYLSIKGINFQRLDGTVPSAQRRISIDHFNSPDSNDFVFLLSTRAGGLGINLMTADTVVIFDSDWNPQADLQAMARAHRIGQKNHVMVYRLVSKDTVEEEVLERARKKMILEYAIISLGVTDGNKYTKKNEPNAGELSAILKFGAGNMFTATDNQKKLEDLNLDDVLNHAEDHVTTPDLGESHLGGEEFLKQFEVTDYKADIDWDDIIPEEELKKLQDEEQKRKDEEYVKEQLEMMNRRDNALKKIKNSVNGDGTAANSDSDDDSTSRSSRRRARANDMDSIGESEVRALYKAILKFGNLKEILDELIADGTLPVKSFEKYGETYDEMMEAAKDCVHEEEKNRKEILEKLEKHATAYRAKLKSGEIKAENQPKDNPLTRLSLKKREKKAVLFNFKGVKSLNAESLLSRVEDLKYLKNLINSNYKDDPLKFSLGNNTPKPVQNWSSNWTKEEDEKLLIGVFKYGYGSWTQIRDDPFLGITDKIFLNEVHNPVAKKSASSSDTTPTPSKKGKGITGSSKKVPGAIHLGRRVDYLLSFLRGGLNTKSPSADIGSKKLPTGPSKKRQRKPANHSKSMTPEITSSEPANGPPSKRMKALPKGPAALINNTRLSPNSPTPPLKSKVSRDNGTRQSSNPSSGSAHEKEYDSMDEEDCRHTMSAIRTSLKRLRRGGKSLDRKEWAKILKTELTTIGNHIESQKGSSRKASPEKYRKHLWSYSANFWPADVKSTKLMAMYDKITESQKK
experiment notes: ScCHD-1 Enzyme Inhibition Assay; further: in the data most compounds retested in dose-response had high values
Assay type: functional
Set-up: scale not given: direction of the effect not stated beside the values
measurement conditions: 30 µM
Consider the following compounds and their measured Percent Effect readings.

| compound | Percent Effect / % |
| --- | --- |
| c1ccc(OCCCNCCn2cccn2)cc1 | -18.9 |
| CCc1nc(CN2CCCN(C(=O)C(C)n3ccnc3)CC2)cs1 (centres undefined) | -4.4 |
| CC(C)c1noc(CCCC(=O)N2CCN(Cc3ccncc3)CC2)n1 | -6.65 |
| CC(C)c1ccsc1C(=O)N1CCCN(Cc2cscn2)CC1 | -19.8 |
| CCN1CCCN(C(=O)c2cnc(OC(C)C)c(Cl)c2)CC1 | 1.65 |
| Cc1cnn(CC2CN(Cc3cccc(C(=O)N(C)C)c3)CCO2)c1 (centres undefined) | -9.57 |
| O=C(Nc1cc(C(F)(F)F)c[nH]c1=O)N1CCCSCC1 | -1.96 |
| Cc1nc(N2CCN(C(=O)c3ccccc3)CC2)c2c(n1)c(C)nn2C | -10.1 |
| CCOC(=O)c1sc2ccsc2c1CN | 5.83 |
| O=C1OC2(CCNCC2)CN1CC(=O)N1CCCC1c1ccco1 (centres undefined) | -4.16 |
| Cc1cn(CC(=O)NC2CCN(S(C)(=O)=O)CC2)c2ccccc12 | -4.9 |
| CN(Cc1ccc(F)cc1)C(=O)CN1CCOC(Cn2cncn2)C1 (centres undefined) | -4.1 |
| COc1ccc(-n2ccc(C(=O)NCCN3CCCCC3C)n2)cc1 (centres undefined) | -12.9 |
| Cc1c(NC(=O)NCC(C)N2CCOCC2)cccc1OC(F)F (centres undefined) | -5.4 |
| CC(CN1CCOCC1)NCc1nncn1C1CCCCC1 (centres undefined) | -1.99 |
| Cn1cccc1CN1CCC2(CCCN(C(=O)c3cnccn3)C2)C1 (centres undefined) | -9.31 |
| O=C(CCc1ccc(Br)cc1F)NS(=O)(=O)c1ccc2c(c1)OCCO2 | -2.67 |
| Cc1cc(-c2cnc(N3CCN(C)CC3)nc2-c2ccc(C)s2)on1 | -16.5 |
| O=C(O)C1(Cc2cccc(-c3ccc(F)c(F)c3)c2)CCOCC1 | -15 |
| COc1ccc(C2(NC(=O)CCn3cncn3)CCCCC2)cc1 | -14.1 |
| O=C(NCCCn1cccn1)C1(c2ccc(Br)cc2)CC1 | -4.29 |
| CC(C)COC(C)C(=O)NCc1cc(F)cc(F)c1 (centres undefined) | -5.87 |
| O=C(NCC(O)c1ccccc1Cl)c1cccc(-n2cnnn2)c1 (centres undefined) | 98.6 |
| Cn1cc(CN2C[C@@H]3COC[C@@H](C(=O)N4CCCCO4)[C@@H]3C2)cn1 | 1.85 |
| Fc1ccc(CN2CCC(c3n[nH]c4nccnc34)CC2)cc1F | -18.1 |
| Cc1ccc(-c2cc(C(=O)NC(C)C(=O)N3CCCCC3)on2)cc1 (centres undefined) | -6.32 |
| Cc1noc(C)c1CNCC1CCCN1c1cccnn1 (centres undefined) | -1.61 |
| CN(Cc1cn2c(n1)CN(C1CCOC1)CC2)Cc1ccco1 (centres undefined) | -10.2 |
| Cc1cc(C(C)C(=O)N2CCCN(Cc3cscn3)CC2)c(C)o1 (centres undefined) | -9.64 |
| COc1ccccc1N1CCC(CNCc2cccc(O)c2)C1 (centres undefined) | -6.34 |
| CC(=O)Nc1ccc(-n2ccc3nc(N4CCCC4)ncc3c2=O)cc1 | 3.54 |
| Cc1ccc(N2CCCC(NCc3ccc(C)o3)C2)nn1 (centres undefined) | -15.2 |
| Cc1nc(N2CCOCC2)nc2c1CCN(Cc1cccnc1)CC2 | -17.8 |
| O=C1CCC2(CCN(Cc3cc(F)ccc3Cl)CC2)CN1C1CCCC1 | -2.27 |
| Cc1cc(N2CCCN(C(=O)Cc3ccc(O)c(Cl)c3)CC2)ccn1 | -1.79 |
| O=C(c1cn(-c2ccccc2Cl)nn1)N1CCCSCC1 | -4.55 |
| CN1CCOC(CNCc2cccc(OCC(F)(F)F)c2)C1 (centres undefined) | -2.57 |
| CN(C)S(=O)(=O)N1CCN(c2nccc(C(F)(F)F)n2)CC1 | -3.75 |
| CCN(CC)Cc1cn2c(n1)CN(C(=O)c1cc(C)on1)CC2 | -0.746 |

---

assayed target: Chromo domain-containing protein 1 (Saccharomyces cerevisiae (strain ATCC 204508 / S288c) (Baker's yeast)) (UniProt P32657)
experiment notes: ScCHD-1 Enzyme Inhibition Assay; further: in the data most compounds retested in dose-response had high values
Format: functional
Design: scale not given: direction of the effect not stated beside the values
measurement conditions: 30 µM
Consider the following compounds and their measured Percent Effect readings.

| compound | Percent Effect, % |
| --- | --- |
| CCn1c(C)cc(C(=O)N2CCCC(c3nc(C)no3)C2)c1C (stereo not drawn) | -22.5 |
| CCC(=O)N1CCc2[nH]cnc2C12CCN(C(=O)c1snnc1C)CC2 | -1.51 |
| Cc1nn(C)c(Cl)c1C1CCCN1C(=O)c1ccc2c(c1)OCO2 (stereo not drawn) | 0.203 |
